assay_details: PAMPA-BBB permeability assay
condition_set: PAMPA-BBB
endpoint_label: % Recovery (%)

[
  {
    "compound": "CC(C)C[C@H](NC(=O)[C@@H]1Cc2c(F)c(F)c(c(F)c2F)S(=O)(=O)c2cccc(c2)CC(=O)N[C@@H](C(C)C)C(=O)N1)C(=O)[C@@]1(C)CO1",
    "measured": 64
  },
  {
    "compound": "CC(C)C[C@H](NC(=O)[C@@H]1Cc2c(F)c(F)c(c(F)c2F)S(=O)(=O)c2cccc(c2)CC(=O)N[C@@H]([C@H](C)O)C(=O)N1)C(=O)[C@@]1(C)CO1",
    "measured": 88
  },
  {
    "compound": "CC(C)C[C@H](NC(=O)[C@@H]1Cc2c(F)c(F)c(c(F)c2F)S(=O)(=O)c2cccc(c2)CC(=O)N[C@@H](C(C)(C)O)C(=O)N1)C(=O)[C@@]1(C)CO1",
    "measured": 79
  },
  {
    "compound": "CC(C)C[C@H](NC(=O)[C@@H]1Cc2c(F)c(F)c(c(F)c2F)Sc2cccc(c2)CC(=O)N[C@@H](C(C)C)C(=O)N1)C(=O)[C@@]1(C)CO1",
    "measured": 49
  },
  {
    "compound": "CC(C)C[C@H](NC(=O)[C@@H]1Cc2c(F)c(F)c(c(F)c2F)Sc2cccc(c2)CC(=O)N[C@@H]([C@@H](C)O)C(=O)N1)C(=O)[C@@]1(C)CO1",
    "measured": 53
  },
  {
    "compound": "CC(C)C[C@H](NC(=O)[C@@H]1Cc2ccc(cc2)S(=O)(=O)CCCCCC(=O)NC(C(C)C)C(=O)N1)C(=O)[C@@]1(C)CO1 (stereo partly drawn)",
    "measured": 99
  }
]

###

assay_details: in vitro
condition_set: mouse liver microsomes
endpoint_label: microsomal CLint (µL/min/mg)

[
  {
    "given_smiles": "CC(C)C[C@H](NC(=O)[C@@H]1CS(=O)(=O)CCCCCCCCCC(=O)N[C@@H](C(C)C)C(=O)N1)C(=O)[C@@]1(C)CO1",
    "measured": 323
  }
]

###

assay_details: Caco-2 cell permeability and efflux
Type: in vitro ADME, human
condition_set: human, Caco-2

[
  {
    "compound": "C[C@H]1O[C@@H](O[C@H]2[C@@H](O)C[C@H](O[C@H]3[C@@H](O)C[C@H](O[C@H]4CC[C@@]5(C)[C@H](CC[C@@H]6[C@@H]5C[C@@H](O)[C@]5(C)[C@@H](C7=CC(=O)OC7)CC[C@]65O)C4)O[C@@H]3C)O[C@@H]2C)C[C@H](O)[C@@H]1O [Digoxin, reference compound]",
    "Papp B→A / ×10⁻⁶ cm/s": 13
  },
  {
    "compound": "CC(C)C[C@H](NC(=O)[C@@H]1CS(=O)(=O)CCCCCCCCCC(=O)N[C@@H](C(C)C)C(=O)N1)C(=O)[C@@]1(C)CO1",
    "Papp B→A / ×10⁻⁶ cm/s": 48.8
  },
  {
    "compound": "CC(C)C[C@H](NC(=O)[C@@H]1CSCCOCCOCCC(=O)N[C@@H](C(C)C)C(=O)N1)C(=O)[C@@]1(C)CO1",
    "Papp B→A / ×10⁻⁶ cm/s": 20.8
  },
  {
    "compound": "CC(C)C[C@H](NC(=O)C(CSc1c(F)c(F)c(F)c(F)c1F)NC(=O)[C@@H](NC(=O)c1cc(Cl)ccc1Cl)C(C)C)C(=O)[C@@]1(C)CO1 (stereo in doubt)",
    "Papp B→A / ×10⁻⁶ cm/s": 1.3
  }
]

###

Each item that follows carries a reported IC50.
assayed_system: human immunoproteasome (i20S) β5 (Homo sapiens, UniProt P20618+P28062)
assay_details: Proteasome subunit inhibition, i20S β5
Assay type: biochemical
condition_set: read-out: i20S β5 IC50 ± SD; read 60 to 90 minutes after start
endpoint_label: IC50 (nM)

[
  {
    "given_smiles": "CC(C)C[C@H](NC(=O)[C@@H]1Cc2ccc(cc2)OCCCCCC(=O)N[C@@H](C(C)C)C(=O)N1)C(=O)[C@@]1(C)CO1",
    "measured": 32.9
  },
  {
    "given_smiles": "CC(C)C[C@H](NC(=O)[C@@H]1Cc2c(F)c(F)c(c(F)c2F)S(=O)(=O)c2cccc(c2)CC(=O)N[C@@H](C(C)C)C(=O)N1)C(=O)[C@@]1(C)CO1",
    "measured": 830
  },
  {
    "given_smiles": "CC(C)C[C@H](NC(=O)[C@@H]1Cc2c(F)c(F)c(c(F)c2F)Sc2cccc(c2)CC(=O)NC(C)(C)C(=O)N1)C(=O)[C@@]1(C)CO1",
    "measured": 763
  }
]

###

assayed_system: human constitutive proteasome (c20S) β5 (Homo sapiens, UniProt P20618+P28074)
assay_details: Proteasome subunit inhibition, c20S β5
endpoint_label: IC50 (µM)

[
  {
    "given_smiles": "CC(C)C[C@H](NC(=O)[C@@H]1CSCCOCCOCCC(=O)N[C@@H](C(C)C)C(=O)N1)C(=O)[C@@]1(C)CO1",
    "measured": 0.39
  },
  {
    "given_smiles": "CC(C)C[C@H](NC(=O)[C@@H]1CS(=O)(=O)CCCCCCCCCC(=O)N[C@@H](C(C)C)C(=O)N1)C(=O)[C@@]1(C)CO1",
    "measured": 0.0075
  }
]

###

assay_details: Plasma stability
Assay type: in vitro ADME
condition_set: mouse plasma, after 2 hr
endpoint_label: Plasma Stability % remaining (after 2 hr %)

[
  {
    "given_smiles": "CC(C)C[C@H](NC(=O)[C@@H]1Cc2c(F)c(F)c(c(F)c2F)Sc2cccc(c2)CC(=O)NC(C)(C)C(=O)N1)C(=O)[C@@]1(C)CO1",
    "measured": 81
  },
  {
    "given_smiles": "CC(C)C[C@H](NC(=O)[C@@H]1CS(=O)(=O)CCCCCCCCCC(=O)N[C@@H](C(C)C)C(=O)N1)C(=O)[C@@]1(C)CO1",
    "measured": 94
  },
  {
    "given_smiles": "CC(C)C[C@H](NC(=O)[C@@H]1CSCCCCCCCCCC(=O)N[C@@H](C(C)C)C(=O)N1)C(=O)[C@@]1(C)CO1",
    "measured": 87
  },
  {
    "given_smiles": "CC(C)C[C@H](NC(=O)[C@@H]1Cc2c(F)c(F)c(c(F)c2F)Sc2cccc(c2)CC(=O)N[C@@H](C(C)C)C(=O)N1)C(=O)[C@@]1(C)CO1",
    "measured": 98
  }
]

###

assay_details: PAMPA-BBB permeability assay
condition_set: PAMPA-BBB

[
  {
    "compound": "CC(C)C[C@H](NC(=O)[C@@H]1Cc2ccc(cc2)OCCCCCC(=O)N[C@@H](C(C)C)C(=O)N1)C(=O)[C@@]1(C)CO1 [Compound 33]",
    "% Recovery / %": 87
  },
  {
    "compound": "CC(C)C[C@H](NC(=O)[C@@H]1Cc2c(F)c(F)c(c(F)c2F)Sc2cccc(c2)CC(=O)NC(C)(C)C(=O)N1)C(=O)[C@@]1(C)CO1 [Compound 31]",
    "% Recovery / %": 64
  },
  {
    "compound": "CC(C)C[C@H](NC(=O)[C@@H]1CSCCCCCCCCCC(=O)N[C@@H](C(C)C)C(=O)N1)C(=O)[C@@]1(C)CO1 [Compound 39]",
    "% Recovery / %": 44
  }
]

###

Test system: H460 cell line
assay_details: Cytotoxicity against H460 cells
Assay type: cell-based
condition_set: Homo sapiens, NCI-H460, read-out: H460 IC50
pIC50: −log10 of the molar value.
endpoint_label: pIC50

[
  {
    "compound": "C[C@@]12OC(=O)[C@]1([C@@H](O)[C@@H]1C=CCCC1)NC(=O)[C@@H]2CCCl [Marizomib, reference compound]",
    "endpoint_label": "pIC50",
    "measured": 7.14
  }
]

###

Each item that follows carries a reported IC50.
assayed_system: human constitutive proteasome (c20S) β2 (Homo sapiens, UniProt P49720+Q99436)
assay_details: Proteasome subunit inhibition, c20S β2
endpoint_label: IC50 (nM)

[
  {
    "molecule": "CC(C)C[C@H](NC(=O)[C@@H]1CS(=O)(=O)CCCCCCCCCC(=O)N[C@@H](C(C)C)C(=O)N1)C(=O)[C@@]1(C)CO1 [Compound 40]",
    "assayed_system": "human constitutive proteasome (c20S) β2 (Homo sapiens, UniProt P49720+Q99436)",
    "endpoint_label": "IC50",
    "reading_unit": "nM",
    "measured": 39.4
  },
  {
    "molecule": "CC(C)C[C@H](NC(=O)[C@@H]1CSCCOCCOCCC(=O)N[C@@H](C(C)C)C(=O)N1)C(=O)[C@@]1(C)CO1 [Compound 41]",
    "assayed_system": "human constitutive proteasome (c20S) β2 (Homo sapiens, UniProt P49720+Q99436)",
    "endpoint_label": "IC50",
    "reading_unit": "nM",
    "measured": 110
  }
]
